Biological target: HIV-1 Env of 3016.V5.c36 (HIV-1)
Experiment: cell-based or functional assay
recorded-metric: neutralization IC50 (µg/mL)
Write down the numeric answer in µg/mL and omit the unit.

# binder, neutralization IC50 [µg/mL]
measured = [
    ("CAP256-VRC26.04 (antibody, V domains shown) VH: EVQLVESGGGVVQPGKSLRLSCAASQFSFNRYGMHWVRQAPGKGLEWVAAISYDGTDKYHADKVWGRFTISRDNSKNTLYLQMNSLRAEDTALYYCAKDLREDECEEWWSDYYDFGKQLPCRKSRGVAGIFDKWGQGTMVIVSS VL: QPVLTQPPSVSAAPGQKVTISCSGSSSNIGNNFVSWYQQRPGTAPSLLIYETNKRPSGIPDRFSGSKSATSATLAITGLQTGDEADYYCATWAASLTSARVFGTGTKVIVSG", 0.283),
]

Entry CAP256-VRC26.10 (antibody, V domains shown) VH: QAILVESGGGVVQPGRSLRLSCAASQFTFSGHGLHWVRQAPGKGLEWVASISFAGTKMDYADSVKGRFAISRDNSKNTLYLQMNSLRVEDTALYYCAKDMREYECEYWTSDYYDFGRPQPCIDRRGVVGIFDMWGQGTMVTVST VL: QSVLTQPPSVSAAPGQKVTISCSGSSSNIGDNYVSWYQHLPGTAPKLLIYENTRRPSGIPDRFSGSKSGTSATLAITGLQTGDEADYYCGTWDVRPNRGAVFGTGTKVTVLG ; neutralization IC50 = 0.017
